target: delF508-CFTR (Homo sapiens, UniProt P13569, DEL508-508); construct: expressed in transfected cells; assay: Measurement of delF508-CFTR-HRP surface expression in CFBE41o- cells; assay type: cell-based; details: HRP-tagged delF508-CFTR in CFBE41o- cells, 24 h with compound, luminescence, 10-point curve, top 10 μM
Sequence (P13569 with tags, fused parts or gaps DEL508-508): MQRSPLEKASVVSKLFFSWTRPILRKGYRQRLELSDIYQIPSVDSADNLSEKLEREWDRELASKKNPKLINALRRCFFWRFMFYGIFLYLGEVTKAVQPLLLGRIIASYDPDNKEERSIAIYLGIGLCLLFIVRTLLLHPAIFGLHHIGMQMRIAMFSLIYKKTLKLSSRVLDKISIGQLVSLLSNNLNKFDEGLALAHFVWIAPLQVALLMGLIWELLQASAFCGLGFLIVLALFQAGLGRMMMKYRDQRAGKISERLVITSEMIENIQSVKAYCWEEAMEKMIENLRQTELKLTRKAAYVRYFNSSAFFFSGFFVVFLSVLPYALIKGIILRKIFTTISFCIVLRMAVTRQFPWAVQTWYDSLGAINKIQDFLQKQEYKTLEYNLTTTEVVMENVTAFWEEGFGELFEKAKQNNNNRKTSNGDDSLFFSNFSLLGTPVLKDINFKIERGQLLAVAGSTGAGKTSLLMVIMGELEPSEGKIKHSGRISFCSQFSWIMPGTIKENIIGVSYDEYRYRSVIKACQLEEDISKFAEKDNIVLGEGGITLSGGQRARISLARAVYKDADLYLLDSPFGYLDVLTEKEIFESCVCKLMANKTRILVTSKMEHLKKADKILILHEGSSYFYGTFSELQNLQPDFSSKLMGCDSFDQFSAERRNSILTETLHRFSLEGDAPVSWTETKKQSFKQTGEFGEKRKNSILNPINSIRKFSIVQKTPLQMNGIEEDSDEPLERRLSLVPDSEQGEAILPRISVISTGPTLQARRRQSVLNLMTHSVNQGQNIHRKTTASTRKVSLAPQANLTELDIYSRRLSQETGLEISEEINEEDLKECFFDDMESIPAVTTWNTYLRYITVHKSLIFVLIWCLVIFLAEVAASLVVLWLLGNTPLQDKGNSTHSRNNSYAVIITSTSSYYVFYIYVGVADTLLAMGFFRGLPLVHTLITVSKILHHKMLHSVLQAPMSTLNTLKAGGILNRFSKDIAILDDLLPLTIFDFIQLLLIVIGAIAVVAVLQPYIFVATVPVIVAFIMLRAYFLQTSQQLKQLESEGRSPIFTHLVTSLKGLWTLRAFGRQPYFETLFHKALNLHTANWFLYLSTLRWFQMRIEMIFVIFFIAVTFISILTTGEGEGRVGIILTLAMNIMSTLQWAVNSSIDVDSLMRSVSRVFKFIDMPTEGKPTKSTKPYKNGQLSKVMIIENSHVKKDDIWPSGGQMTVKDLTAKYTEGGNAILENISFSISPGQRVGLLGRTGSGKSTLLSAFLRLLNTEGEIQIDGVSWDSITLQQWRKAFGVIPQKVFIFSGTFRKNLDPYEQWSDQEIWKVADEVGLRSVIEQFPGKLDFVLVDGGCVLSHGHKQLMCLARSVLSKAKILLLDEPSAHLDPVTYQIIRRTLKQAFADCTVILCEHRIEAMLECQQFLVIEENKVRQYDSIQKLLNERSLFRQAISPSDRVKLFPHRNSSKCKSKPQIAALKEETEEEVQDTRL
measured.endpoint: EC50 (nM)

Solved entries:
compound	measured.endpoint	obs.value
Cc1c(F)cccc1-c1nc(NS(=O)(=O)c2cccc(N(C)CCCCC(=O)O)n2)ccc1C(F)(F)F [Compound 67]	EC50	1630
Cc1ccccc1-c1nc(NS(=O)(=O)c2cccc(N3CCC(CCC(=O)O)CC3)n2)ccc1C(F)(F)F [Compound 79]	EC50	2910
Cc1ccccc1-c1nc(NS(=O)(=O)c2cccc(N3CCC[C@H](CC(=O)O)C3)n2)ccc1C(F)(F)F [Compound 59]	EC50	2070

I = Cc1ccccc1-c1nc(NS(=O)(=O)c2cccc(N(CCCC(=O)O)CC(C)C)n2)ccc1Cl [Compound 154]
II = Cc1ccccc1-c1nc(NS(=O)(=O)c2cccc(N3CCC[C@@H](CC(=O)O)C3)n2)ccc1C(F)(F)F [Compound 60]
III = COc1ccc(Cl)c(-c2nc(NS(=O)(=O)c3cccc(N4CCN(c5ccc(C(=O)O)cc5)CC4)n3)ccc2C(F)(F)F)c1 [Compound 21]
QUERY: Order these by EC50, descending, and give the full ranking. Output spec: a listing of the labels in the requested order.
RESULT: III, II, I
(III: 2930 nM, II: 1910 nM, I: 930 nM)

P = Cc1ccccc1-c1nc(NS(=O)(=O)c2cccc(N[C@@H]3[C@H]4CC[C@H](C4)[C@@H]3C(=O)O)n2)ccc1C(F)(F)F (racemic) [108a 108b (racemic mixture)]
Q = CC1(CC(=O)O)CCN(c2cccc(S(=O)(=O)Nc3ccc(C(F)(F)F)c(-c4ccccc4C4CCC4)n3)n2)CC1 [Compound 24]
QUERY: Higher EC50 between P and Q ? The response must carry the label of the picked entry.
RESULT: P
(P: 2070 nM, Q: 1310 nM)

I = CCCN(CCC(=O)O)c1cccc(S(=O)(=O)Nc2ccc(C(F)(F)F)c(-c3cc(F)ccc3C)n2)n1 [Compound 149]
II = Cc1ccccc1-c1nc(NS(=O)(=O)c2cccc(NCC3(C(=O)O)CC3)n2)ccc1C(F)(F)F [Compound 11]
III = Cc1ccc(F)cc1-c1nc(NS(=O)(=O)c2cccc(N(CCCC(=O)O)CC(C)C)n2)ccc1C(F)(F)F [Compound 127]
IV = CCC(CC(=O)O)Nc1cc(S(=O)(=O)Nc2ccc(Cl)c(-c3c(C)cccc3C)n2)ccn1 (stereo not shown) [Compound 141]
QUERY: Reorder the items by EC50, least to greatest. Output spec: a listing of the labels in the requested order.
RESULT: III, I, II, IV

a = Cc1ccc(F)cc1-c1nc(NS(=O)(=O)c2cccc(N(C)CCCC(=O)O)n2)ccc1C(F)(F)F [Compound 92]
b = CCc1ccccc1-c1nc(NS(=O)(=O)c2cccc(N3CCC(C)(CC(=O)O)CC3)n2)ccc1C(F)(F)F [Compound 22]
QUERY: Lowest EC50? choose a or b The response must carry the label of the picked entry.
RESULT: b
(b: 1060 nM, a: 1820 nM)

P = CCN(CCCC(=O)O)c1cccc(S(=O)(=O)Nc2ccc(C(F)(F)F)c(-c3cc(F)ccc3C)n2)n1 [Compound 115]
Q = CCCN(CCCC(=O)O)c1cccc(S(=O)(=O)Nc2ccc(Cl)c(-c3c(C)cccc3C)n2)n1 [Compound 157]
R = Cc1cccc(C)c1-c1nc(NS(=O)(=O)c2ccnc(NCCC(=O)O)c2)ccc1Cl [Compound 2]
QUERY: Order these by EC50, descending, and give the full ranking. Output spec: a listing of the labels in the requested order.
RESULT: R, P, Q
(R: 2720 nM, P: 1510 nM, Q: 770 nM)

P = CC(C)c1ccccc1-c1nc(NS(=O)(=O)c2cccc(N(C)CCC(=O)O)n2)ccc1C(F)(F)F [Compound 44]
Q = Cc1cccc(C)c1-c1nc(NS(=O)(=O)c2cccc(NCCCCC(=O)O)n2)ccc1Cl [Compound 4]
QUERY: Higher EC50 between P and Q ? The response must carry the label of the picked entry.
RESULT: Q

1 = CCN(CCC(=O)O)c1cccc(S(=O)(=O)Nc2ccc(C(F)(F)F)c(-c3cc(F)ccc3C3CC3)n2)n1 [Compound 111]
2 = Cc1ccccc1-c1nc(NS(=O)(=O)c2cccc(N(CCC(=O)O)CC(C)C)n2)ccc1C(F)(F)F [Compound 128]
QUERY: Lowest EC50? choose 1 or 2 The response must carry the label of the picked entry.
RESULT: 2

P = O=C(O)CC1CCN(c2cccc(S(=O)(=O)Nc3ccc(C(F)(F)F)c(-c4ccccc4-c4ccccc4)n3)n2)CC1 [Compound 16]
Q = CCCN(CCCC(=O)O)c1cccc(S(=O)(=O)Nc2ccc(C(F)(F)F)c(-c3cc(F)ccc3C)n2)n1 [Compound 131]
QUERY: Lowest EC50? choose P or Q The response must carry the label of the picked entry.
RESULT: Q
